Molecular target: purified recombinant form of human BACE1 aspartyl protease (Homo sapiens, UniProt P56817)
Construct: hexahistidine (His6) (C)
Sequence (P56817 46-501): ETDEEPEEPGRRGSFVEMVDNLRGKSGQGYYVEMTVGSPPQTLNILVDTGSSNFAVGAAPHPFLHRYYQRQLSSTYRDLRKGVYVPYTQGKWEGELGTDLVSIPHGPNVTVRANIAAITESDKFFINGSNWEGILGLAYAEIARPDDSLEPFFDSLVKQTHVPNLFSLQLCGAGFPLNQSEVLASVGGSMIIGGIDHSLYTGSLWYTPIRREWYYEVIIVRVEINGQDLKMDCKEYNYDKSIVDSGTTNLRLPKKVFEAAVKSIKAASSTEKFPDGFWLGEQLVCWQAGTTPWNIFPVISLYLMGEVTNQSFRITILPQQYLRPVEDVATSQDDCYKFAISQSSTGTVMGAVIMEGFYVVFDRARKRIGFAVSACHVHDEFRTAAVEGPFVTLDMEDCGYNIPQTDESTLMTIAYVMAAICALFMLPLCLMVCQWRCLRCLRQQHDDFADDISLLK
Test: BACE-1 FRET assay, in vitro inhibition of β-secretase activity
Conditions: peptide substrate 0.25 μM, enzyme 10 nM, sodium acetate buffer pH 4.5, 60 min, ambient temperature; read-out: IC50 (concentration of product giving 50% inhibition of the enzyme activity)
Observable: IC50 (nM)
The response must be a number in nM with no trailing unit.

Asked: Query for purified recombinant form of human BACE1 aspartyl protease (Homo sapiens, UniProt P56817): what IC50 does the record show for CCCC(CCC)n1ccc2c(C(=O)N[C@@H](Cc3ccccc3)[C@H](O)CNCc3cccc(C(F)(F)F)c3)cccc2c1=O ?
Given back: 2600

Asked: Query for purified recombinant form of human BACE1 aspartyl protease (Homo sapiens, UniProt P56817): what IC50 does the record show for CCCC(CCC)n1cnc2c(C(=O)N[C@@H](Cc3ccccc3)[C@H](O)CNCc3cccc(C(F)(F)F)c3)cccc2c1=O.Cl ?
Given back: 830
